FYI, the data here is from the supplement of paper PMC12667976.

AIRE transcriptional activation functional score listing for selected variants.
B1: library; numbered along this chain (parent)
chain: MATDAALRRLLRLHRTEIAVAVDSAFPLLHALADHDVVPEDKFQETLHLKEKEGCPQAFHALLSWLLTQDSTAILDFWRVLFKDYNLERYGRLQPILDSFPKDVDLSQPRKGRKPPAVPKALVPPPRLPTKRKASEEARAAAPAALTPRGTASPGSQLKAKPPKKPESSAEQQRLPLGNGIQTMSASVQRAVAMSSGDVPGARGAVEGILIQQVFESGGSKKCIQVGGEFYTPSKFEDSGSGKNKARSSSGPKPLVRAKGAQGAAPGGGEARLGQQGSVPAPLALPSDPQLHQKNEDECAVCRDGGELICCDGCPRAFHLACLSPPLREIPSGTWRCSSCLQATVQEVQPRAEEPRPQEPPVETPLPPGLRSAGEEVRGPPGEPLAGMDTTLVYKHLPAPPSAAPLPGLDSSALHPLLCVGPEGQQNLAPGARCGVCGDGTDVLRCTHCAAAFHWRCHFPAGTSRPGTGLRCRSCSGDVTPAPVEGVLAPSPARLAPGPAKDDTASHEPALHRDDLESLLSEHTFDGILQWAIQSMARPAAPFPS

# Variants of: B1
# ASSAY_METHOD_TEXT: AIRE transcriptional activation functional score (insulin promoter-GFP; nonsense median 0, synonymous median 1) (normalised score); higher = higher AIRE activity (more reporter activation)
# TEST_CONTEXT: with insulin promoter-GFP reporter in HEK293
Enter the number alone.

VARIANT_NOTATION: P539V
DATA_VALUE: 0.434

VARIANT_NOTATION: V118A
DATA_VALUE: 1.02

VARIANT_NOTATION: R92Y
DATA_VALUE: -0.675

VARIANT_NOTATION: K111Y
DATA_VALUE: 1.29

Lookup: What does the data say about its AIRE transcriptional activation functional score? Entry: "D34G"
Found: 0.43

Lookup: What does the data say about its AIRE transcriptional activation functional score? Entry: "V256W"
Found: 1.37
